# System Under Test: Nuclear receptor ROR-gamma (Homo sapiens)
# Protocol Details: qHTS assay to identify small molecule antagonists of the retinoid-related orphan receptor gamma (ROR-gamma) signaling pathway (AID 1159521; also: nearly all actives have a fitted effect of over 50% in size)
# Condition Description: Tet-on RORgamma CHO cells, RORE-luciferase, 16 h; series mostly up to 92.4 µM
Records with an inconclusive call do not appear. Calls of active or inactive are those of the source. Calls follow the shape of the dose curve; as a rule, active = well fitted inhibition curve with a large enough effect in the repeat runs; inconclusive = weak or mixed curves, or effect the other way; inactive = no such curve, though single readings can be large or run the other way.
Response enum: active, inactive

Look over these answered cases.
• CCCCCCCCCCOC(=O)c1ccccc1C(=O)OCCCCCCCCCC = inactive
• CC1(C)[C@H](C=C(Cl)Cl)[C@@H]1C(=O)O[C@@H](C#N)c1cccc(Oc2ccccc2)c1 = active

Challenge: Lab log entry: [O-][Cl+]O — outcome as called in the assay?
Response given: inactive

Challenge: Tell me the recorded outcome of this test for CC1CC(CC2CCC(N)C(C)C2)CCC1N (stereo not drawn) .
Response given: inactive

Challenge: Hi team, can someone confirm the assay call for CCCCN(N=O)C(=N)N[N+](=O)[O-] ?
Response given: inactive

----------
# System Under Test: Luciferin 4-monooxygenase (Photinus pyralis)
# Protocol Details: qHTS assay to identify small molecule inhibitors of firefly luciferase (AID 1224835); also: nearly all actives have a fitted effect of over 25% in size
# Condition Description: purified P. pyralis luciferase, luminescence inhibition; series mostly up to 115 µM
Inconclusive results are not listed. Active and inactive are the calls of the source. The call rests on the fitted dose curve; in most records, active means well fitted inhibition curve with a large enough effect in the repeat runs; inconclusive means weak or mixed curves; inactive means flat fitted curve, though single readings scatter.
Assign a class; possible classes are class 1 (active), class 0 (inactive)

• CCC(Cl)CCl (centres undefined) = class 0
• CC(C)(OO)c1ccccc1 = class 0

Challenge: Per the records of this test, what outcome belongs to O=C=Nc1ccc(Cl)cc1 ?
Response given: class 1

Challenge: Recorded test call requested for S=C=NCc1ccccc1
Response given: class 0

Challenge: Can you look up the reported call for O=S(=O)(O)C(F)(F)C(F)(F)C(F)(F)C(F)(F)F for me?
Response given: class 0

Challenge: I'd appreciate the recorded outcome for Clc1cccc2ccccc12 from this test.
Response given: class 0

Challenge: Returns: the outcome recorded for CCCN(CCCl)c1c([N+](=O)[O-])cc(C(F)(F)F)cc1[N+](=O)[O-] in this assay.
Response given: class 0

Challenge: Outcome logged for O=C(C(Cl)(Cl)Cl)C(Cl)(Cl)Cl in this assay:
Response given: class 0

Challenge: Entry Cc1cc(=O)[nH]o1 : call = ?
Response given: class 0

Challenge: Hello, I am checking results. What call was entered for N#Cc1ccc(Cl)cc1 ?
Response given: class 0

Challenge: // param item: ClC=C(Cl)Cl ; yields the recorded call
Response given: class 0

Challenge: Record request — test call for O=C(OC1CCCCC1)c1ccccc1C(=O)OC1CCCCC1
Response given: class 0

Challenge: // outcome(item) with item = O=C1C(Cl)C(CCl)CN1c1cccc(C(F)(F)F)c1 (centres undefined)
Response given: class 0

Challenge: // return assay outcome for CCCCC(O)(Cn1cncn1)c1ccc(Cl)cc1Cl (centres undefined)
Response given: class 0

Challenge: I'd appreciate the recorded outcome for O=C(O)C(F)(F)C(F)(F)C(F)(F)C(F)(F)C(F)(F)C(F)(F)C(F)(F)C(F)(F)C(F)(F)C(F)(F)F from this test.
Response given: class 0

Challenge: For CC1C(=O)C[C@]2(C(C)C)C[C@H]12 (some centres undefined) , what call appears in the results of this test?
Response given: class 0

Challenge: Which result was noted for this compound in the test: CCN(C)N=O
Response given: class 0

Challenge: Dear all, I need the recorded test outcome for CC/C(=N\OC/C=C/Cl)C1=C(O)CC(C2CCOCC2)CC1=O (centres undefined) , thank you.
Response given: class 0

Challenge: Would you mind telling me which call this test gave [O-][Cl+]O ?
Response given: class 0
